{"columns": ["Compound", "melting point"],
 "data": [
  ["O=C(Cn1cc(-c2ccccc2)nn1)N/N=C/c1cc(Br)ccc1O [Compound 11h]", "233 to 233.5 °C"],
  ["CC(=O)Nc1cccc(-c2cn(CC(=O)N/N=C/c3ccccc3O)nn2)c1 [Compound 10d]", "253.8 to 254.2 °C"],
  ["O=C(Cn1cc(-c2ccccc2)nn1)N/N=C/c1ccc(O)cc1 [Compound 11c]", "234 to 234.5 °C"],
  ["O=C(Cn1cc(-c2ccccc2)nn1)N/N=C/c1cc(Br)cc(Br)c1O [Compound 11g]", "231 to 231.5 °C"],
  ["COc1ccc(/C=N/NC(=O)Cn2cc(-c3cccc(NC(C)=O)c3)nn2)c(OC)c1 [Compound 10i]", "210.9 to 211.3 °C"],
  ["CC(=O)Nc1cccc(-c2cn(CC(=O)N/N=C/c3cccc(Cl)c3)nn2)c1 [Compound 10b]", "255.8 to 256.3 °C"],
  ["COc1ccc(/C=N/NC(=O)Cn2cc(-c3ccccc3)nn2)cc1OC [Compound 11j]", "232.1 to 232.5 °C"],
  ["COc1cc(/C=N/NC(=O)Cn2cc(-c3cccc(NC(C)=O)c3)nn2)cc(OC)c1OC [Compound 10k]", "210.2 to 212.9 °C"]
]}
